Test: BT084 cell growth, single and combined drugs, ICGC_MB145, cisplatin and BGB IC40 combos (AID 1671461);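 further: cells exposed to drugs for 96 hours; 0% = vehicle DMSO and 100% = high DMSO full killing control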
Details: BT084 medulloblastoma cells, drug combinations, at 0.5 µM
Active and inactive are the calls of the source. No stated cut-off is given here; in the data, active means inhibition above about 80%; inactive means the rest. Non-standard residues stand in square brackets, D forms with d. Residues, ends and D or L forms follow the SMILES beside them. Dolaproine = CO[C@@H]([C@@H]1CCCN1)[C@@H](C)C(=O)O; Dil = CC[C@H](C)[C@H](NC)[C@@H](CC(=O)O)OC; NMeV = CN[C@H](C(=O)O)C(C)C
Lab note: assign the record to one of 1 = active, 0 = inactive

What was the test verdict on CC[C@H](C)[C@@H]([C@@H](CC(=O)N1CCC[C@H]1[C@H](OC)[C@@H](C)C(=O)N[C@@H](Cc1ccccc1)C(=O)O)OC)N(C)C(=O)[C@@H](NC(=O)[C@@H](NC)C(C)C)C(C)C (H-[NMeV]V[Dil][Dolaproine]F-OH) ?
0

Next record, please: O=c1ccn(C2CC(O)C(CO)O2)c(=O)[nH]1 (stereo not drawn)
0

Next record, please: CC1OC(CC(=O)O)CC2=C1C(=O)c1c(O)cccc1C2=O (stereo not drawn)
1

Next record, please: Cc1cn(C2CC(O)C(COP(=O)(O)OP(=O)(O)OP(=O)(O)O)O2)c(=O)[nH]c1=O (stereo not drawn)
0

Next record, please: `Cn1cc(-c2cnn3c(N)c(Br)c([C@H]4CCCNC4)nc23)cn1`
0

Next record, please: COc1cccc2c1C(=O)c1c(O)c3c(c(O)c1C2=O)CC(O)(C(C)=O)CC3OC1CC(N)C(O)C(C)O1 (stereo not drawn)
0

Next record, please: `Cc1ccc([N+](=O)[O-])cc1S(=O)(=O)N(C)/N=C\c1cnc2ccc(Br)cn12`
0

Next record, please: `COc1ccccc1S(=O)(=O)Nc1ccc2c(c1)CN(C)C(=O)N2`
0

====

For each record, write down the corresponding viability.
Assay: P. berghei load reduction in hepatocytes – cell-based, HepG2, luciferase luminescence, HepG2 viability, primary screen (AID 624349);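 further: 100% = mean of DMSO negative control wells on the same plate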
Conditions: P. berghei liver stage in HepG2, luciferase luminescence, concentration not given here; measured here: HepG2 viability without parasites
Report as a plain number; the unit % is understood.

Requested read-out: viability. Entry: CC[C@H]1OC(=O)[C@H](C)[C@@H](O[C@H]2C[C@@](C)(OC)[C@@H](O)[C@H](C)O2)[C@H](C)[C@@H](O[C@@H]2O[C@H](C)C[C@H](N(C)C)[C@H]2O)C(C)(O)C[C@@H](C)CN(C)[C@H](C)[C@@H](O)[C@]1(C)O (some centres undefined)
65.5

Next record, please: `COC(=O)Nc1nc2ccc(SC(C)C)cc2[nH]1`
74.8

Next record, please: `CN(C)CC/C=C1/c2ccccc2CSc2ccccc21`
76.6

Next record, please: O[C@@H]1[C@@H](O)C=C2CCN3Cc4cc5c(cc4[C@H]1C23)OCO5 (some centres undefined)
101

Next record, please: CC1=CC(=O)CC(C)(C)C1(O)/C=C/C(C)=C\C(=O)O (centres undefined)
73.1

Next record, please: CC(=O)OCC(=O)[C@@]1(O)CC[C@H]2[C@@H]3CCC4=CC(=O)CC[C@]4(C)C3(F)C(=O)C[C@@]21C (some centres undefined)
46.2

Next record, please: `CC/C=C\C/C=C\C/C=C\C/C=C\C/C=C\CCCC(=O)OCC`
94

Next record, please: `Nc1n[nH]c(N)c1N=Nc1ccc(O)cc1`
93.1

Next record, please: `O=C1C(Cl)=C(N2C(=O)CCC2=O)C(=O)c2ccccc21`
76.3

====

Test: compounds altering viability of human ES cells (AID 493140);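 further: cells exposed to compounds for four days before counting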
Settings: human embryonic stem cell survival screen; stronger effect = higher value
Activity calls are given as the source filed them. The rule behind the calls is not given here.
metric: survival

Requested read-out: survival. Entry: COC(=O)C1=CO[C@@H](C)[C@@H]2CN3CCc4c([nH]c5ccccc45)C3C[C@H]12 (some centres not stated)
5.92 (inactive)

Next record, please: `CCCCC[C@H](O)/C=C/[C@@H]1[C@@H](CCCCCCC(=O)O)[C@@H](O)C[C@H]1O`
96.8 (inactive)

Next record, please: `CCCCC/C=C\C[C@H](O)/C=C/C=C/C=C/[C@@H](O)CCCC(=O)O`
96.2 (inactive)

Next record, please: `CN(C)CC/C=C1/c2ccccc2CSc2ccccc21`
3.75 (inactive)

Next record, please: `CC/C=C\C/C=C\C/C=C\C/C=C\C/C=C\C/C=C\CCC(=O)O[C@H](COCCCCCCCCCCCCCCCC)COP(=O)([O-])OCC[N+](C)(C)C`
68.5 (inactive)

Next record, please: C=C(NC(=O)C(=C)NC(=O)c1csc(C2=NC3c4csc(n4)C4NC(=O)c5csc(n5)C(C(C)(O)C(C)O)NC(=O)C5CSC(=N5)/C(=C/C)NC(=O)C(C(C)O)NC(=O)c5csc(n5)C3(CC2)NC(=O)C(C)NC(=O)C(=C)NC(=O)C(C)NC(=O)C(C(C)CC)NC2C=Cc3c(C(C)O)cc(nc3C2O)C(=O)OC4C)n1)C(N)=O (configuration not stated)
0.917 (inactive)

Next record, please: `CCCCC[C@H](O)CC[C@H]1[C@H](O)CC(=O)[C@@H]1CCCCCCC(=O)O`
89 (inactive)

====

Test: drug combination growth inhibition, ovarian cancer – cell-based, oncology-focused library, rucaparib conditional, profiling panel (AID 1508598)
Settings: patient-derived ovarian cancer cells, CellTiter-Glo viability, 144 h; at 5 µM; OCI-C5x cells; without rucaparib; stronger effect = lower value
metric: viability (%)
Report as a plain number; the unit % is understood.

Requested read-out: viability. Entry: `CC(=O)OCC(=O)[C@]1(O)[C@H](C)C[C@H]2[C@@H]3CCC4=CC(=O)C=C[C@]4(C)[C@]3(F)[C@H](O)C[C@@]21C`
110

Next record, please: `CC(C)(C)C(=O)Nc1ccc2c(c1)C(=O)C(=O)c1ccccc1-2`
107

Next record, please: `C[C@H](O[C@H]1OCCN(Cc2n[nH]c(=O)[nH]2)[C@H]1c1ccc(F)cc1)c1cc(C(F)(F)F)cc(C(F)(F)F)c1`
147

Next record, please: `CN(CC(=O)N(Cc1ccc(C2CCCCC2)cc1)c1ccc(C(=O)O)cc1)S(=O)(=O)c1c(F)c(F)c(F)c(F)c1F`
2.98

Next record, please: `NC(=O)CCCSc1nc(N)nc(-c2c(Cl)cc3c4c(cccc24)COC3)n1`
6.09

Next record, please: `COc1cccc2c1C(=O)c1c(O)c3c(c(O)c1C2=O)C[C@@](O)(C(=O)CO)C[C@H]3O[C@H]1C[C@H](N)[C@@H](O)[C@H](C)O1`
2.52

Next record, please: `COc1cc(C(=O)NC2CCN(C)CC2)ccc1Nc1ncc2c(n1)N(C1CCCC1)CC(F)(F)C(=O)N2C`
19.7

Next record, please: `COc1cccc(-c2cc(F)ccc2[C@H]2Cc3nc(N)nc(C)c3C(=O)N2)n1`
7.01

====

Assay: viability loss with induced miR-34 in A549 – imaging, A549 dox-inducible miR-34, nuclei and caspase counts, primary screen (AID 1347080)
Conditions: A549 miR-34 inducible, Hoechst nuclei count, 48 h; measured here: total cells with miR-34 induction; stronger effect = lower value
For each record, write down the corresponding cell count.
Just the number, please.

Requested read-out: cell count. Entry: `N#C/C(=C\c1cc(Cl)cc(Cl)c1)c1cccnc1`
1950

Next record, please: `CSCC[C@H](NC(=O)[C@H](Cc1ccccc1)NC[C@@H](NC[C@@H](N)CS)C(C)C)C(=O)O`
6180

Next record, please: COc1ccc(CNc2nc(N3CCCC3CO)ncc2C(=O)NCc2ncccn2)cc1Cl (centres undefined)
8210

Next record, please: `COc1cccc(Cc2noc(-c3nccc4ccccc34)n2)c1`
8090

Next record, please: CCC1(O)CC2CN(CCc3c([nH]c4ccccc34)[C@@](C(=O)OC)(c3cc4c(cc3OC)N(C)C3[C@]45CCN4CC=C[C@@](CC)([C@@H](OC(C)=O)[C@]3(O)C(=O)OC)[C@H]45)C2)C1 (some centres undefined)
1680

Next record, please: CC(C)(C)NCC(O)COc1ccccc1C1CCCC1 (centres undefined)
7970

Next record, please: COC(=O)C(N)Cc1ccc(Cl)cc1 (centres undefined)
9580

Next record, please: `CC(=O)O[C@]1(C(C)=O)CC[C@H]2[C@@H]3C[C@H](C)C4=CC(=O)C=C[C@]4(C)[C@@]3(F)[C@H](O)C[C@@]21C`
5370

Next record, please: `COc1ccc(CSc2nnc(-c3ccc4c(c3)OCO4)o2)cc1F`
8570

====

Experiment: viability loss with induced miR-34 in A549 – imaging, A549 dox-inducible miR-34, nuclei and caspase counts, primary screen (AID 1347080)
Settings: A549 miR-34 inducible, Hoechst nuclei count, 48 h; measured here: relative caspase fold change +Dox/-Dox
metric: fold change
Just the number, please.

Requested read-out: fold change. Entry: `C=CC1=C(C(=O)O)N2C(=O)[C@@H](NC(=O)/C(=N\OCC(=O)O)c3csc(N)n3)[C@H]2SC1`
1.38

Next record, please: O=C1CC(c2ccc(O)cc2)Oc2cc(O)ccc21 (stereo not given)
0.718

Next record, please: `CNCC[C@H](Oc1ccc(C(F)(F)F)cc1)c1ccccc1`
0.944

Next record, please: COC(=O)NC(C(=O)N1CCCC1c1ncc(-c2ccc(-c3ccc(-c4cnc(C5CCCN5C(=O)C(NC(=O)OC)C(C)C)[nH]4)cc3)cc2)[nH]1)C(C)C (stereo not given)
0.711

Next record, please: CC(=O)N1CCCC(Cn2cnc3scc(-c4cc(C)ccc4C)c3c2=O)C1 (stereo not given)
1.14

Next record, please: C#C[C@@]1(OC(C)=O)CC[C@H]2[C@@H]3CCC4=CC(OC(C)=O)CC[C@@H]4[C@@H]3CC[C@@]21C (stereo not given in full)
0.478

Next record, please: `c1ccn2cc(CCNc3ncnc4nc[nH]c34)nc2c1`
1.9

Next record, please: `CCC(=O)N1CCN(C(=O)c2ccccc2)CC1`
1.03

Next record, please: `COc1ccccc1-c1cnn(CC(=O)Nc2cc(C)nn2C)c1`
2.23

Next record, please: `Fc1ccc(C(c2ccc(F)cc2)N2CCN(CC=Cc3ccccc3)CC2)cc1`
0.978

All values here come from PubChem BioAssay.
